The following molecules are listed with their measured pEC50 values.
system: HSV-1; test: In vitro antiviral activity in cell culture; assay type: cell-based; settings: Human alphaherpesvirus 1; HSV-1, cell culture
In plain terms, pEC50 is the concentration in mol/L turned into minus its base-10 logarithm.

Example results:
>  <molecule>
Nc1nc(O)c2ncn(COC(CO)CO)c2n1

>  <pEC50>
8.15

$$$$
>  <molecule>
Nc1ccn(C[C@@H](CO)OCP(=O)(O)O)c(=O)n1

>  <pEC50>
5.26

$$$$

Enquiry: Bench note: what pEC50 did CCCCCCCCCCCCCCCCOCCCOP(=O)(O)COC(CO)Cn1ccc(N)nc1=O (stereo not drawn) show?
Return: 7.22
